The measurements presented in this section are drawn from patent US20230250160A1.

molecular target: T1, Human Serum Albumin (human, UniProt P02768 25-609); assay: SPR Biacore T200, HSA on CM5 chip, ADAPT injected, 1:1 fit
T1 construct: also called HSA
T1 sequence (P02768 25-609 limits assumed): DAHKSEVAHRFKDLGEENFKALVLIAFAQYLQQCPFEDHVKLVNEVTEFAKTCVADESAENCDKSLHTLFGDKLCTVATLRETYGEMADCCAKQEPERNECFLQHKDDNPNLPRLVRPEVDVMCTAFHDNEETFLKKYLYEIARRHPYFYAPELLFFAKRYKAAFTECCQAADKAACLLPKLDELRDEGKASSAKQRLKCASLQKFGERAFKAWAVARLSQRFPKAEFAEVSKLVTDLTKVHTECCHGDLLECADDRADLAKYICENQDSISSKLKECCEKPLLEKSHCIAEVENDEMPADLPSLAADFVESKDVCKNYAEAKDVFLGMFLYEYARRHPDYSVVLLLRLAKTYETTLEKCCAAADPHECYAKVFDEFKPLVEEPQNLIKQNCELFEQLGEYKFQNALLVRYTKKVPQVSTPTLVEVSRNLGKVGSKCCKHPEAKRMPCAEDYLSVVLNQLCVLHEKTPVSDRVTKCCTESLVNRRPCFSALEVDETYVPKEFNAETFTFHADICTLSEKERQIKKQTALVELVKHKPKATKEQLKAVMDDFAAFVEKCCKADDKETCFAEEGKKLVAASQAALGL
Observed property: Kd (nM)

Example entries begin here.
What value of Kd has been reported for the following binder? LHEAKDWADYELWSYGVSDFYRALIWKAKTVEGVEALKLHILAALP (designed binder) [ADAPT variant ANG_13]
2.8

Same again, this time with LKVAKIIAFHELWEYGVSDFYLSLIDKAKTVEGVEALKLHILAALP (designed binder) [ADAPT variant CRP_38]
13

Try this binder too: LFRAKVWAVWELDQYGVSDFYDELIWKAKTVEGVEALKLHILAALP (designed binder) [ADAPT variant PSA_05]
3.3

P. LWWAKVWAVAELQKYGVSDFYFKLIDKAKTVEGVEALKLHILAALP (designed binder) [ADAPT variant MYDGF_07]
Q. LAIAKAYAQYELSFYGVSDFYRELIVKAKTVEGVEALKLHILAALP (designed binder, also called INS_02) [ADAPT variant Insulin_02]
// compare measured Kd between P and Q ; output the lower one Record your answer as the label of the chosen record.
Q
